Conditions: in 2-butanone, 293.15 K
MEASURED_PROPERTY: solubility (mole fraction)
Respond using a number only.

`O=C1CCc2cc(OCCCCc3nnnn3C3CCCCC3)ccc2N1` has a reported solubility (mole fraction) of 0.00529

---

Conditions: in ethyl acetate, 288.15 K
MEASURED_PROPERTY: solubility (mole fraction)
Respond using a number only.

`O=C1CCc2cc(OCCCCc3nnnn3C3CCCCC3)ccc2N1` has a reported solubility (mole fraction) of 0.000428

---

Details: in n-propanol, 278.15 K
MEASURED_PROPERTY: solubility (mole fraction)
Respond using a number only.

`O=C1CCc2cc(OCCCCc3nnnn3C3CCCCC3)ccc2N1` has a reported solubility (mole fraction) of 0.000334
